Tested on: DMPK
Test: DMPK knockdown by transfected antisense oligonucleotides in DM1 C15 myotubes at 0.5 nM and 50 nM
Format: cell-based
Conditions: 0.5 nM oligonucleotide, 72 hours, qPCR, relative to vehicle control
Kind request: treat 30% as inclusive, so Percent DMPK Reduction at 30% or higher is Satisfied, anything lower is Not satisfied.

[[record]]
substance = "273 (CUGUGCACGUAGCCAAGCCG; chemistry not given here) [compound 273]"
tested_on = "DMPK"
cat = "Not satisfied"

[[record]]
substance = "300 (GGCCUCAGCCUCUGCCGCAG; chemistry not given here) [compound 300]"
tested_on = "DMPK"
cat = "Not satisfied"

[[record]]
substance = "344 (UCUGCCGCAGGGACAGCCGC; chemistry not given here) [compound 344]"
tested_on = "DMPK"
cat = "Not satisfied"

[[record]]
substance = "272 (CUCUGCCGCAGGGACAGCCG; chemistry not given here) [compound 272]"
tested_on = "DMPK"
cat = "Satisfied"

[[record]]
substance = "269 (CUGUCCCGGAGACCAUCCCA; chemistry not given here) [compound 269]"
tested_on = "DMPK"
cat = "Satisfied"

[[record]]
substance = "251 (CUCGGCCGGAAUCCGCUCCC; chemistry not given here) [compound 251]"
tested_on = "DMPK"
cat = "Not satisfied"

[[record]]
substance = "373 (GGGACAGACAAUAAAUACCG; chemistry not given here) [compound 373]"
tested_on = "DMPK"
cat = "Not satisfied"

